Target: T1, Rad4-Rad23 delta-beta-hairpin3 (<137>) (UniProt P14736;P32628 101-598+606-632;1-77+230-398, internal_change;internal_change)
T1 sequence 1: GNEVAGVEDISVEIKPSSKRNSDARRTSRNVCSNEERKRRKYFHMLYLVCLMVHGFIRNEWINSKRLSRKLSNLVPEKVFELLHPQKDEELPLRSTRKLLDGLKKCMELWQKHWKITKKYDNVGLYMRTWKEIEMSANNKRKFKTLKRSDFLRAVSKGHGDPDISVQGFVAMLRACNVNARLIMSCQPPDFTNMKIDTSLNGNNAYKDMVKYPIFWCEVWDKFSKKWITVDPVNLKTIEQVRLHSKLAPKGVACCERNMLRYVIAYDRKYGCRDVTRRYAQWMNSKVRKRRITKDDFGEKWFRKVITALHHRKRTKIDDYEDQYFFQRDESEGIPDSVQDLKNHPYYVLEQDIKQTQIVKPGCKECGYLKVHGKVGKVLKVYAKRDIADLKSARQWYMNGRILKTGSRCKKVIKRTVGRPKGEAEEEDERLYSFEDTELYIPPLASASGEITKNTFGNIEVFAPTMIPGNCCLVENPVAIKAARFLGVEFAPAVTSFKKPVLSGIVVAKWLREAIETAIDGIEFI
T1 sequence 2: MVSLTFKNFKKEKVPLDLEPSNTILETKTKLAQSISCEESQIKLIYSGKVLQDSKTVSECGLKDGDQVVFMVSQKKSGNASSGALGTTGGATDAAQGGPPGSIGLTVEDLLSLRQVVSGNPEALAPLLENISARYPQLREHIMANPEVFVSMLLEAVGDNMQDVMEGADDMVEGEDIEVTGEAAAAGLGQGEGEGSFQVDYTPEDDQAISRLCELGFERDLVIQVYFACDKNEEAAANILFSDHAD
Experiment: competitive EMSA; apparent Ks; 1000 nM cold CH7_NX competitor; EMSA: 5 mM BTP-HCl pH 6.8, 75 mM NaCl, 5 mM DTT, 5% glycerol, 0.74 mM CHAPS, 500 ug/ml BSA, room temperature 20 min, 5 nM labeled DNA, 1000 nM cold CH7_NX
Details: protein: recombinant; tags: N-terminal His tag on Rad4; copies: 1;1; label: 32P; 3-bp CCC/CCC mismatch; 5' overhang 1 nt at both ends
readout-type: Kd

Problem: Name the recorded Kd for CCC/CCC mismatched (CH10_NX) (dsDNA) DNA 1: TTGACTCGACATCCCCCGCTACAA DNA 2: ATTGTAGCCCCGGATGTCGAGTCA .
Solution: ~200 nM
